- Tested on: Mus musculus
- testSummary: Anticonvulsant activity in ip dosed CF-1 albino mouse assessed as protection against maximal electroshock-induced seizures after 4 hrs
- Assay type: functional
endpoint: MED50 (mg/kg)
Return type: number; implicit unit mg/kg.

Q: Given the entry COc1ccccc1N1CCN(CN2C(=O)CC(C)(c3ccccc3)C2=O)CC1 (stereo not given) , report its measured MED50.
Result: 100

Q: Please report the recorded MED50 for CC1(C)CC(=O)N(CN2CCN(c3ccccc3F)CC2)C1=O .
Result: 100

Q: Given the entry COc1cccc(N2CCN(CN3C(=O)CC(C)(c4ccccc4)C3=O)CC2)c1 (stereo not given) , report its measured MED50.
Result: 100

Q: What measured MED50 goes with Cc1cccc(N2CCN(CN3C(=O)CC(C)(c4ccccc4)C3=O)CC2)c1 (stereo not given) ?
Result: 100

Q: Entry CC1(c2ccccc2)CC(=O)N(CN2CCN(c3cccc(Cl)c3)CC2)C1=O (stereo not given) has what MED50?
Result: 30
